- Procedure summary: Oral bioavailability in human at 125 mg
- Type: ADME, organism-based
- Run conditions: in vivo
Observed property: bioavailability
Please answer using a numeric value trailed by its unit.

Inquiry: Specify reported bioavailability for the molecule shown: CC(=O)c1c(C)c2cnc(Nc3ccc(N4CCNCC4)cn3)nc2n(C2CCCC2)c1=O [PALBOCICLIB]
Reply text: 46%

----------
- Procedure summary: Tmax in human
- Format: ADME
Observed property: Tmax

• CCN1CCN(Cc2ccc(Nc3ncc(F)c(-c4cc(F)c5nc(C)n(C(C)C)c5c4)n3)nc2)CC1 = 4 to 24 h

# next compound below
Inquiry: Hello, please tell me recorded Tmax for this one: CN(C)C(=O)c1cc2cnc(Nc3ccc(N4CCNCC4)cn3)nc2n1C1CCCC1
Reply text: 1 to 4 h
